biological target: beta-catenin/TCF4 engagement (Homo sapiens, UniProt P35222); construct: expressed in transfected cells; host or cells: HEK293; test: Nano-BRET target engagement assay (B-cat-Halo & TCF4-Luc in HEK293 cells); format: cell-based; conditions: read-out: NanoBRET Abs IC50
Sequence (P35222 whole entry): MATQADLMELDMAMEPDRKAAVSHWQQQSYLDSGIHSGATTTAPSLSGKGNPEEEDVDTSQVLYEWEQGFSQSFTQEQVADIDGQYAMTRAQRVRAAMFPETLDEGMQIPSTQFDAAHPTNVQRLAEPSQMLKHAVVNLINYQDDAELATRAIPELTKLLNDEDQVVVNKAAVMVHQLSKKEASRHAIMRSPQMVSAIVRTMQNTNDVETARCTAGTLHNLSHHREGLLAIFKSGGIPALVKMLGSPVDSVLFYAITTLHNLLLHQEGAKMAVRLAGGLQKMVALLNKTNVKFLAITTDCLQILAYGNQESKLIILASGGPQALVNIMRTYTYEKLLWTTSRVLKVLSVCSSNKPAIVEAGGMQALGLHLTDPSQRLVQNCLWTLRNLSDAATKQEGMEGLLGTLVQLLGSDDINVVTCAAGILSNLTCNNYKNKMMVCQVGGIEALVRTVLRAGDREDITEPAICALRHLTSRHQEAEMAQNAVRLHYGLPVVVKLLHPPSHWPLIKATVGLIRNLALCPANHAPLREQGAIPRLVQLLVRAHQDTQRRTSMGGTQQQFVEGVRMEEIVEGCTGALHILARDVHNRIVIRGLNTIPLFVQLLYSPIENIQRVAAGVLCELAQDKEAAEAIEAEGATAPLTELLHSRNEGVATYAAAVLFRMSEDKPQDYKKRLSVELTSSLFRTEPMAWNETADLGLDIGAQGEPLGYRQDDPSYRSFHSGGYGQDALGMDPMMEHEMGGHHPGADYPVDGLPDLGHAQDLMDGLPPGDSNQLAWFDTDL
pIC50: −log10 of the molar value.
readoutType: pIC50

Some solved cases for reference:
CC(=O)N1CCC[C@]12CC=CCCCC1(CCCC=CCCCOC(=O)N3CC[C@@](C(=O)N[C@@H](Cc4ccsc4)C(=O)N[C@@H](Cc4csc5ccccc45)C(=O)N[C@@H](CCC(N)=O)C(N)=O)(C3)NC(=O)[C@H](CC(N)=O)NC(=O)[C@H](Cc3cccc(C(=O)O)c3)NC(=O)[C@H](C)NC(=O)[C@H](C)NC(=O)[C@H](CCc3ccc(O)cc3)NC(=O)[C@H](CC(=O)O)NC1=O)NC(=O)[C@H](CC(C)(C)C)NC(=O)[C@H](CC(=O)O)NC2=O (stereo partly drawn) [I-2115] | < 4.70
CC(=O)N1CCC[C@]12CC=CCCCC1(CCCC=CCCCOC(=O)N3CC[C@@](C(=O)N[C@@H](Cc4ccccc4Cl)C(=O)N[C@@H](Cc4csc5ccccc45)C(=O)N[C@@H](CCC(N)=O)C(N)=O)(C3)NC(=O)[C@H](CO)NC(=O)[C@H](Cc3ccccc3)NC(=O)[C@H](C)NC(=O)[C@H](C)NC(=O)[C@H](CC(=O)O)NC(=O)[C@H](CC(=O)O)NC1=O)NC(=O)[C@H](Cc1ccc3ccccc3c1)NC(=O)[C@H](CC(=O)O)NC2=O (stereo partly drawn) [I-1109] | < 4.70

Task: For the record CC(=O)N1CCC[C@]12CC=CCCCC1(CCCC=CCCCOC(=O)N3CC[C@@](C(=O)N[C@@H](Cc4ccsc4)C(=O)N[C@@H](Cc4csc5ccccc45)C(=O)N[C@@H](CCC(N)=O)C(N)=O)(C3)NC(=O)[C@H](CC(N)=O)NC(=O)[C@H](Cc3ccccc3)NC(=O)[C@H](C)NC(=O)[C@H](C)NC(=O)[C@H](CCCNC(=N)N)NC(=O)[C@H](CC(=O)O)NC1=O)NC(=O)[C@H](CC(C)(C)C)NC(=O)[C@H](CC(=O)O)NC2=O (stereo partly drawn) [I-1890] , what value of pIC50 is listed for beta-catenin/TCF4 engagement (Homo sapiens, UniProt P35222)?
Result: < 4.70
